Below, each entry is listed with its recorded TGI.
# Tested on: DLD-1 colon
# protocol-summary: NCI tumour cell line growth inhibition, 48 h
The reply should be a number in µM, with the unit left off.

>  <compound>
CN(C)C=C1C(Cl)=C(C=O)CC(C=O)=C1Cl

>  <reading-unit>
µM

>  <TGI>
20.9

$$$$

Ask: Request body: readout TGI, system DLD-1 colon, query C=C(OC1C(C)=C2C(C1OC(=O)CCCCCCC)C(C)(OC(C)=O)CC(OC(=O)CCC)C1(O)C2OC(=O)C1(C)O)/C(C)=C/C (stereo not given) . Return the value.
Result: 16.4

====

# Tested on: ACHN renal
# protocol-summary: NCI tumour cell line growth inhibition, 48 h
measured-attribute: TGI

Observe how each entry below is paired with its result.
>  <compound>
O=CC12C3CCC1C2C(=O)C3 (stereo unspecified)

>  <readout-value>
> 100 µM

$$$$
>  <compound>
CC(C)(C)C1CCC2c3c([nH]c4ccccc34)C3C(=O)N(c4ccccc4)C(=O)C3C2C1 (stereo unspecified)

>  <readout-value>
26.2 µM

$$$$
>  <compound>
Cn1c(=O)c2nc(-c3ccc(Cl)cc3)oc2n(C)c1=O

>  <readout-value>
> 100 µM

$$$$

Ask: Requested read-out: TGI. Entry: O=C(NCc1cccc2ccccc12)N/N=C\c1ccc(Cl)cc1
Result: > 100 µM

Ask: Requested read-out: TGI. Entry: CCCN(CCCC(NC(C)=O)C(=O)NCc1ccccc1)C(=O)NCCCl (stereo unspecified)
Result: > 100 µM

====

# Test system: MDA-MB-435
# protocol-summary: NCI tumour cell line growth inhibition, 48 h
Below, each entry is listed with its recorded TGI.
The reply should be a number in nM, with the unit left off.

Observe how each entry below is paired with its result.
>  <compound>
COc1ccccc1CNCCCN1C(=O)c2ccc3c4c(ccc(c24)C1=O)C(=O)N(CCCCNCCCN)C3=O

>  <tested-system>
MDA-MB-435

>  <reading-unit>
nM

>  <TGI>
1160

$$$$
>  <compound>
C/C=C/C1OC(O)(C(C)C(O)[C@H](C)C2OC(=O)/C(OC)=C/C(C)=C/[C@@H](C)[C@@H](O)[C@@H](C)C(O)C(C)C/C(C)=C/C=C/C2OC)C[C@@H](OC2CC(O)C(OC(N)=O)C(C)O2)C1C (some centres undefined)

>  <tested-system>
MDA-MB-435

>  <reading-unit>
nM

>  <TGI>
2580

$$$$

From here, focus on the item given below.
Ask: Requested read-out: TGI. Entry: CCN(CC)CCNC(=O)c1cn2c(ccc3sc4ccccc4c(=O)c32)n1
Result: 54000

====

# Test system: RXF 393 renal
# protocol-summary: NCI tumour cell line growth inhibition, 48 h
Below, each entry is listed with its recorded TGI.
The reply should be a number in µM, with the unit left off.

Observe how each entry below is paired with its result.
>  <molecule>
Cc1cc(N2CCSCC2)nc(NC2CCCC(Nc3ccnc4cc(Cl)ccc34)C2)n1 (stereo not given)

>  <reading-unit>
µM

>  <readout-value>
2.93

$$$$
>  <molecule>
COc1ccc(C(=O)c2cc3c(N)c(C(=O)Nc4ccc(C)cc4)sc3nc2C)cc1

>  <reading-unit>
µM

>  <readout-value>
9.38

$$$$
>  <molecule>
COc1ccc(/C=N\Nc2ccc([N+](=O)[O-])cn2)cc1OC

>  <reading-unit>
µM

>  <readout-value>
16.7

$$$$

From here, focus on the item given below.
Ask: Request body: readout TGI, system RXF 393 renal, query O=C(OCc1ncc(-c2ccc(C(F)(F)F)cc2)c(NC2CCCCCC2)n1)c1c(F)c(F)c(F)c(F)c1F . Return the value.
Result: 21.3

====

Below, each entry is listed with its recorded TGI.
# System: COLO 205 colon
# protocol-summary: NCI tumour cell line growth inhibition, 48 h
The reply should be a number in µM, with the unit left off.

>  <compound>
COc1cc(CNc2ccccc2C(=O)N2CCN(C(=O)c3cc(-c4cc(OC)c(OC)c(OC)c4)n4nc(-c5ccccc5)cc4n3)CC2)cc(OC)c1OC

>  <TGI, µM>
15.4

$$$$
>  <compound>
O=C(Nc1cccc(O)c1)C(=O)C(C(=O)c1ccc(Cl)c(Cl)c1)C1OC(=O)c2ccccc21 (centres undefined)

>  <TGI, µM>
30.7

$$$$
>  <compound>
COc1ccccc1CNCCCN1C(=O)c2ccc3c4c(ccc(c24)C1=O)C(=O)N(CCCCNCCCN)C3=O

>  <TGI, µM>
1.08

$$$$

Ask: Request body: readout TGI, system COLO 205 colon, query CCOC(=O)CC1(c2cccc3ccccc23)OC(=O)c2ccccc21 (centres undefined) . Return the value.
Result: 98.5

Ask: Request body: readout TGI, system COLO 205 colon, query Cc1ccc(/C=N/Nc2ccc3ccccc3n2)s1 . Return the value.
Result: 31.1

Ask: Request body: readout TGI, system COLO 205 colon, query COc1ccc2cc(CN3CCC(C4CCNCC4)CC3)ccc2c1 . Return the value.
Result: 3.25

====

# Tested on: SW-620 colon
# protocol-summary: NCI tumour cell line growth inhibition, 48 h
Below, each entry is listed with its recorded TGI.
The reply should be a number in µM, with the unit left off.

Observe how each entry below is paired with its result.
>  <compound>
O=c1c(Cl)c(Cl)c(=O)c2sc3cc(Cl)ccc3[nH]c1=2

>  <measured-attribute>
TGI

>  <reading-unit>
µM

>  <readout-value>
52.1

$$$$
>  <compound>
COC(=O)N1CC2C3C4CC(C(c5ccccc5)=C4c4ccccc4)C3C21 (stereo not given)

>  <measured-attribute>
TGI

>  <reading-unit>
µM

>  <readout-value>
40.4

$$$$
>  <compound>
CC(C)(C)CC(C)(C)NCc1cc(C(C)(C)C)cc(CNC(C)(C)CC(C)(C)C)c1O

>  <measured-attribute>
TGI

>  <reading-unit>
µM

>  <readout-value>
12.4

$$$$
>  <compound>
CCOC(=N)/C(=C1\OC(N)=C(c2ccc(Cl)cc2)C1=O)c1ccc(Cl)cc1

>  <measured-attribute>
TGI

>  <reading-unit>
µM

>  <readout-value>
32.1

$$$$

From here, focus on the item given below.
Ask: Request body: readout TGI, system SW-620 colon, query O=c1c(=O)c2c(Br)sc(Br)c2c1=O . Return the value.
Result: 31.8

====

# Tested on: DU-145 prostate
# protocol-summary: NCI tumour cell line growth inhibition, 48 h
measured-attribute: TGI

Observe how each entry below is paired with its result.
>  <compound>
COc1ccc(CN=C(N)N)c2ccccc12

>  <readout-value>
> 100 µM

$$$$
>  <compound>
Cc1cc(CC(C)CC(C)(C)C)n(O)c(=O)c1 (stereo unspecified) (tested in a mixture with another compound)

>  <readout-value>
> 41.3 µM

$$$$
>  <compound>
CCCCCCCCCCCCOCCCOP(=O)([O-])OCC[N+](C)(C)C

>  <readout-value>
> 75.1 µM

$$$$
>  <compound>
Cc1ccc(C)c(C2NC(=O)c3ccccc3N2)c1 (stereo unspecified)

>  <readout-value>
> 50.9 µM

$$$$
>  <compound>
Clc1ccc(C2Nc3ccccc3C3=NCCN32)cc1 (stereo unspecified)

>  <readout-value>
> 100 µM

$$$$

From here, focus on the item given below.
Ask: Requested read-out: TGI. Entry: COc1cc(CNc2ccccc2C(=O)N2CCN(C(=O)c3cc(-c4cc(OC)c(OC)c(OC)c4)n4nc(-c5ccccc5)cc4n3)CC2)cc(OC)c1OC
Result: > 100 µM

====

# Tested on: OVCAR-5 ovarian
# protocol-summary: NCI tumour cell line growth inhibition, 48 h
measured-attribute: TGI

Observe how each entry below is paired with its result.
>  <compound>
COc1nc(N)nc2c1ncn2C1OC(CO)C(O)C1O (stereo unspecified)

>  <TGI>
> 5000 µM

$$$$
>  <compound>
CCOC(=N)CC(=O)c1ccccc1

>  <TGI>
> 100 µM

$$$$
>  <compound>
Cn1c2ccc(Br)cc2c2c3c(c4c5ccccc5[nH]c4c21)C(=O)N(O)C3=O

>  <TGI>
3.73 µM

$$$$
>  <compound>
CCOC(=O)CC1C(COC(=O)NC)OC(n2cnc3c(NC(=O)Nc4ccccc4)ncnc32)C1O[Si](C)(C)C(C)(C)C (stereo unspecified)

>  <TGI>
39.7 µM

$$$$
>  <compound>
Nc1nn2c(nc(N)c3c(N)[nH]nc32)c1N=Nc1ccc(Br)cc1

>  <TGI>
> 96.2 µM

$$$$
>  <compound>
CC(=O)[CH-]C(=O)c1ccccc1.CC(=O)[CH-]C(=O)c1ccccc1.CCOCC[O-].CCOCC[O-].[Ti+4]

>  <TGI>
60.7 µM

$$$$
>  <compound>
O=C(O)CCC(=O)c1ccc(Cl)cc1

>  <TGI>
> 100 µM

$$$$
>  <compound>
CC(=O)On1c(-c2ccccc2-c2nc3ccccc3n2OC(C)=O)nc2ccccc21

>  <TGI>
> 100 µM

$$$$
>  <compound>
FC(F)(F)C1(Br)C(c2ccccc2)=C1c1ccccc1

>  <TGI>
52 µM

$$$$
>  <compound>
N#Cc1c(-c2ccccc2)[nH]c(=O)n(C2OC(CO)C(O)C(O)C2O)c1=O (stereo unspecified)

>  <TGI>
> 100 µM

$$$$

Ask: Request body: readout TGI, system OVCAR-5 ovarian, query O=C1Nc2ccc(Cl)cc2/C1=C\c1c(Cl)nc2sccn12 . Return the value.
Result: 78.2 µM

Ask: Request body: readout TGI, system OVCAR-5 ovarian, query CN/N=C(\C)C(CN(C)C)C(c1ccccc1)c1c(O)c2ccccc2oc1=O (stereo unspecified) . Return the value.
Result: > 100 µM

Ask: Request body: readout TGI, system OVCAR-5 ovarian, query N#Cc1c(-c2ccccc2)c(N=Nc2ccc(Cl)cc2)c(=O)n2c1[nH]c1ccccc12 . Return the value.
Result: > 100 µM

Ask: Request body: readout TGI, system OVCAR-5 ovarian, query O=Cc1cccc2c1Oc1c(cccc1C(=O)O)S2 . Return the value.
Result: > 100 µM

Ask: Request body: readout TGI, system OVCAR-5 ovarian, query O=C1c2cc(Cl)ccc2NC(=NCCCl)C2CSCN12 (stereo unspecified) . Return the value.
Result: > 100 µM
